Every entry's value here was drawn from paper PMC5540273.

test system: CDK4-cyclinD3
measured.property: pKd
Field pKd (float): negative decimal logarithm of the concentration in molar.

Item: `CC(=O)c1c(C)c2cnc(Nc3ccc(N4CCNCC4)cn3)nc2n(C2CCCC2)c1=O` Test system: CDK4-cyclinD3 Read-out: pKd Value: ?;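 note: kd values determined as follow-up on hits from a single-replicate KINOMEscan panel screen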
9.21

###

# reported %Inh; entries follow
tested on: GRK7; conditions: concentration: 1 μM, replicates: in singlicate; n = 1;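 note: KINOMEscan kinase panel screen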
Answer format reminder: number followed by unit.

Nc1nccc(-c2c(-c3ccc(F)cc3)ncn2C2CCN(Cc3ccccc3)CC2)n1 | 6%
COc1ccc(CSc2nnc(-c3ccc4ncsc4c3)o2)cc1C(F)(F)F | 0%
CS(=O)(=O)CCNCc1nc(-c2ccc3ncnc(Nc4ccc5c(cnn5Cc5ccccc5)c4)c3c2)cs1.Cl.Cl | 0%

What value of %Inh has been reported for the following molecule? `CS(=O)(=O)CCNCc1nc(-c2ccc3ncnc(Nc4ccc(OCc5ccccc5)c(Cl)c4)c3c2)cs1.Cl`
0%

Now give it for `Cc1c(Cn2c3ccccc3n3c(=O)cc(N4CCOCC4)nc23)cccc1C(F)(F)F` too.
0%

Now give it for `Fc1ccc(-c2nc[nH]c2-c2ccncc2)cc1` too.
0%

Now give it for `CN1c2ccc(-c3ccc(C(N)=O)cc3)cc2-c2[nH]ncc2S1(=O)=O` too.
0%

Now give it for `Cl.Cl.Cl.N#Cc1ccc(CCNc2nccc(-c3cccc(CN4CCNCC4)c3)n2)cc1` too.
5%

Now give it for `O=C(Nc1n[nH]c2cc(-c3ccsc3)ccc12)C1CC1` too.
0%

Now give it for COc1cccc(CNC(=O)NC2CCN(c3ccnc(Nc4ccc(F)cc4)n3)C2)c1 (stereo not drawn) too.
5%

Now give it for O=C(Nc1n[nH]c2nc(-c3ccco3)c(Br)cc12)C1CCN(Cc2ccccc2)C1.O=C(O)[C@H](O)[C@@H](O)C(=O)O (stereo not drawn) too.
42%

Now give it for `CNC(=O)c1ccc(C)c(-n2c(C)cc(OCc3ccc(F)cc3F)c(Br)c2=O)c1` too.
0%

Now give it for `CNc1nc(-c2ccc3c(N)n[nH]c3c2)cc(N2C[C@@H](C(=O)Nc3ccccc3)CC[C@H]2C)n1` too.
0%

Now give it for `Cn1cncc1-c1cc2c(Nc3ccc(OCc4ccccc4)cc3)ncnc2cn1` too.
0%

Now give it for `COc1ccc2cc(-c3nc(-c4ccccc4C(C)C)[nH]c3-c3ccncc3)ccc2c1` too.
0%

Now give it for `CCc1ccc(-c2ccc3c(c2)-c2n[nH]cc2S(=O)(=O)N3C)cc1` too.
0%

Now give it for `Cc1c(Cn2c(C)c(C)n3c(=O)cc(N4CCOCC4)nc23)cccc1C(F)(F)F` too.
0%

Now give it for `O=c1cc(N2CCOCC2)nc2n(Cc3ccccc3F)ccn12` too.
0%
